# MEASURED_ON: human NAMPT (Homo sapiens)
# Sequence (P43490 whole entry): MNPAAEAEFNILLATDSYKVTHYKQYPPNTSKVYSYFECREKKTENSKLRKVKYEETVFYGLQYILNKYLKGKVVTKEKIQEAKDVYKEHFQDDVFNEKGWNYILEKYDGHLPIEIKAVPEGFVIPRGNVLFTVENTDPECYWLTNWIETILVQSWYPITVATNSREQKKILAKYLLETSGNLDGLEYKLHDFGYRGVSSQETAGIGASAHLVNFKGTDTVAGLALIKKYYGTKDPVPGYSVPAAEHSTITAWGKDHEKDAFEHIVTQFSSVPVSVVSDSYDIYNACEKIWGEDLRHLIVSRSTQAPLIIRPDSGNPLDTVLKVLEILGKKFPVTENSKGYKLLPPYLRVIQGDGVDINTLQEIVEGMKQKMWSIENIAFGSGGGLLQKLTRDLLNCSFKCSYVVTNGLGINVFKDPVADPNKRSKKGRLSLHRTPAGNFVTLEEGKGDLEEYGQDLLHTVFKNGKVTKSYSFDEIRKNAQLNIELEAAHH
# ASSAY_NAME: Human recombinant enzyme assay (NMN fluorescence biochemical assay, activation of NAMPT)
# RUN_CONDITIONS: Table A; human recombinant NAMPT, NMN formation, 60 min; read-out: EC50 Human
The compounds listed here are annotated with their pEC50.
Would you please state pEC50, meaning minus log10 of the concentration in mol/L, as a bare number?

Consider the following illustrative entries.
Cc1ccc(C(=O)N2CC[C@]3(C2)C[C@H](NC(=O)NCc2ccc(Cl)cc2)C3)cc1 [Compound 164]    4.40
Cc1cc(C(=O)NCC2CC3(C2)CC(NC(=O)NCc2ccc(Cl)cc2)C3)ccn1 (centres unmarked) [Compound 246]    5.38
Cc1ccccc1C(=O)N1CCC(CCCCNC(=O)NCc2ccncc2)CC1 [Compound 323]    5.80
CC(C)(C)OC(=O)N1CCC2(CC1)CC2CNC(=O)NCc1ccncc1 (centres unmarked) [Compound 25]    4.56
O=C(Cc1ccccc1)NC1CC2(C1)CC(NC(=O)NCc1ccc(Cl)cc1)C2 (centres unmarked) [Compound 115]    4.83

Query pEC50 for COc1ccc(CNC(=O)NC2CC3(C2)CC(C(=O)N2CCN(C(C)C)CC2)C3)cc1 (centres unmarked) [Compound 122]
4.32

Query pEC50 for COc1ccc(CNC(=O)NC2CC3(C2)CC(C(=O)N2CCc4ccccc42)C3)cc1 (centres unmarked) [Compound 74]
4.88

Query pEC50 for O=C(NCc1ccc(Cl)cc1)NC1CC2(CC(CNC(=O)c3cn[nH]c3)C2)C1 (centres unmarked) [Compound 247]
5.10
